Values compiled from patent US8518947B2.

Entries and their pIC50
# SUBJECT OF TEST: p75^NTR receptor (Homo sapiens, UniProt P08138)
# Construct: the clone Bep 75, stably expressing the complete form of the human p75^NTR receptor; the soluble p75NTR-AP came from the supernatant of transiently transfected HEK293 cells
# Sequence (P08138 29-427): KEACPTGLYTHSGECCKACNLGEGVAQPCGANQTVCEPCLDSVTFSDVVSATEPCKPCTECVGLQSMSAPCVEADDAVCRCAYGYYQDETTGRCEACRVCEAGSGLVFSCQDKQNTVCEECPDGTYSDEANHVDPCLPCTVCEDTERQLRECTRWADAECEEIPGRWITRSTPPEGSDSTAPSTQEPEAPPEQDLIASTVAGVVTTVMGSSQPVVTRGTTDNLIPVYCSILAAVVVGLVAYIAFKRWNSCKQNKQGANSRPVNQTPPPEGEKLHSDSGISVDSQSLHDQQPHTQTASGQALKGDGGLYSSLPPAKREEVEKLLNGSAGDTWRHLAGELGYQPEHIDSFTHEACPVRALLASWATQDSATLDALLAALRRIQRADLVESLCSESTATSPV
# ASSAY OVERVIEW: Study of the dimerization of the p75NTR receptor independently of its ligand (binding of soluble p75NTR-alkaline phosphatase to SK-N-BE Bep 75 cells)
# RECORDED CONDITIONS: 1 hour preincubation at 37° C., soluble p75NTR-alkaline phosphatase 10 nM
FYI, pIC50 means -log10 of a concentration in mol per litre.

Some molecules with known pIC50 results, for comparison:
INSERT INTO measurements (molecule, metric_name, measured_value) VALUES
  ('C[C@@H]1CN(c2ccc(C(F)(F)F)cn2)C[C@H](C)N1CC(=O)N1CC=C(c2cccc3ccoc23)CC1', 'pIC50', 9.03),
  ('C[C@@H]1CN(c2ccc(C(F)(F)F)cn2)[C@@H](C)CN1CC(=O)N1CC=C(c2cccc3ccoc23)CC1', 'pIC50', 8.96),
  ('C[C@@H]1CN(c2ncc(F)cn2)C[C@H](C)N1CC(=O)N1CC=C(c2cccc3ccoc23)CC1', 'pIC50', 7.70);

Shift focus to the following entry.
Endpoint output: pIC50 of CC1CN(c2cnccn2)CC(C)N1CC(=O)N1CC=C(c2cccc3ccsc23)CC1 (stereo not shown) . Value?
10.10

* * *

Counter-ions that a name gives are not always drawn.
Entries and their melting point

Some compounds with known melting point results, for comparison:
INSERT INTO results (compound, measured_value) VALUES
  ('O=C(CN1CCN(c2ccc(C(F)(F)F)cn2)C(=O)C1)N1CC=C(c2ccc3c(c2)OCCO3)CC1 [Compound 49]', '161 to 162 °C'),
  ('O=C(O)c1ccc(N2C3CCC2CN(CC(=O)N2CC=C(c4cccc5ccsc45)CC2)C3)nc1 [85]', '191 to 192 °C'),
  ('O=C(CN1CCN(c2ccc(C(F)(F)F)cn2)CC1)N1CC=C(c2ccc3c(c2)OCCO3)CC1 [Compound 21]', '142 to 143 °C'),
  ('C[C@@H]1CN(c2ccc(C(F)(F)F)nc2)C[C@H](C)N1CC(=O)N1CC=C(c2cccc3ccsc23)CC1 (as salt: HCl) [Compound 54]', '225 to 226 °C');

Endpoint output: melting point of COC(=O)c1ccc(N2C[C@@H](C)N(CC(=O)N3CC=C(c4ccc5sc(C)cc5c4)CC3)[C@@H](C)C2)nc1 [Compound 61] . Value?
148 to 150 °C

Endpoint output: melting point of C[C@@H]1CN(c2ncc(F)cn2)C[C@H](C)N1CC(=O)N1CC=C(c2cccc3ccoc23)CC1 (as salt: HCl) [Compound 36] . Value?
174 to 175 °C

Endpoint output: melting point of C[C@@H]1CN(c2ccc(Cl)cn2)C[C@H](C)N1CC(=O)N1CC=C(c2cccc3ccsc23)CC1 [Compound 101] . Value?
157 to 158 °C

* * *

Entries and their melting point

Some molecules with known melting point results, for comparison:
INSERT INTO measurements (smiles, measured_value) VALUES
  ('C[C@@H]1CN(c2ccc(C(F)(F)F)cn2)C[C@H](C)N1CC(=O)N1CC=C(c2c[nH]c3ccccc23)CC1', '198 to 200 °C'),
  ('C[C@@H]1CN(c2cncnc2)C[C@H](C)N1CC(=O)N1CC=C(c2cccc3ccoc23)CC1', '142 to 143 °C'),
  ('O=C(CN1CCN(c2ccc(C(F)(F)F)cn2)C(=O)C1)N1CC=C(c2ccc3occc3c2)CC1', '154 to 155 °C'),
  ('O=C(CN1CCN(c2ccnc3cc(Cl)ccc23)CC1)N1CC=C(c2cccc3ccsc23)CC1', '90 to 91 °C'),
  ('N#Cc1ccc(N2C3CCC2CN(CC(=O)N2CC=C(c4cccc5ccoc45)CC2)C3)nc1', '184 to 185 °C'),
  ('O=C(O)c1ccc(N2C3CCC2CN(CC(=O)N2CC=C(c4cccc5ccsc45)C2)C3)nc1', '189 to 190 °C'),
  ('O=C(CN1CCN(c2ccc(C(F)(F)F)cn2)CC1)N1CC=C(c2cccc3ccoc23)CC1', '155 to 156 °C');

Endpoint output: melting point of "Cc1cc2cc(C3=CCN(C(=O)CN4CC5CCC(C4)N5c4ccc(C#N)cn4)CC3)ccc2s1" . Value?
171 to 172 °C
